Data credit: patent US8753875B2

# Tested on: Proteus mirabilis
# EXPERIMENT NOTES: Growth on Flexicult plate, susceptibility/resistance to the five antibiotics (FIG. 4, Table A)
# Format: cell-based
OUTCOME MEASURE: Susceptibility = S or Resistance = R

* COc1cc(Cc2cnc(N)nc2N)cc(OC)c1OC | S
* CC1(C)S[C@@H]2[C@H](/N=C/N3CCCCCC3)C(=O)N2[C@H]1C(=O)O | R
* CC1(C)SC2C(NC(=O)C(N)c3ccccc3)C(=O)N2C1C(=O)O (centres unmarked) | S
* Cc1nnc(NS(=O)(=O)c2ccc(N)cc2)s1 | S
* O=C1CN(N=Cc2ccc([N+](=O)[O-])o2)C(=O)N1 | S

----------
# System: E. coli
# EXPERIMENT NOTES: Growth on Flexicult plate, susceptibility/resistance to the five antibiotics (FIG. 4, Table A)
# Assay type: cell-based
OUTCOME MEASURE: Susceptibility = S or Resistance = R

• COc1cc(Cc2cnc(N)nc2N)cc(OC)c1OC = S
• CC1(C)S[C@@H]2[C@H](/N=C/N3CCCCCC3)C(=O)N2[C@H]1C(=O)O = S
• Cc1nnc(NS(=O)(=O)c2ccc(N)cc2)s1 = R
• CC1(C)SC2C(NC(=O)C(N)c3ccccc3)C(=O)N2C1C(=O)O (centres unmarked) = R
• O=C1CN(N=Cc2ccc([N+](=O)[O-])o2)C(=O)N1 = S

----------
# Tested on: E. faecalis
# EXPERIMENT NOTES: Growth on Flexicult plate, susceptibility/resistance to the five antibiotics (FIG. 4, Table A)
# Format: cell-based
OUTCOME MEASURE: Susceptibility = S or Resistance = R

- O=C1CN(N=Cc2ccc([N+](=O)[O-])o2)C(=O)N1: R
- Cc1nnc(NS(=O)(=O)c2ccc(N)cc2)s1: R
- CC1(C)SC2C(NC(=O)C(N)c3ccccc3)C(=O)N2C1C(=O)O (centres unmarked): S
- COc1cc(Cc2cnc(N)nc2N)cc(OC)c1OC: S
- CC1(C)S[C@@H]2[C@H](/N=C/N3CCCCCC3)C(=O)N2[C@H]1C(=O)O: S

----------
# Test system: Morganella spp.
# EXPERIMENT NOTES: Growth on Flexicult plate, susceptibility/resistance to the five antibiotics (FIG. 4, Table A)
# Type: cell-based
OUTCOME MEASURE: Susceptibility = S or Resistance = R

- Cc1nnc(NS(=O)(=O)c2ccc(N)cc2)s1: S
- O=C1CN(N=Cc2ccc([N+](=O)[O-])o2)C(=O)N1: R/S
- CC1(C)S[C@@H]2[C@H](/N=C/N3CCCCCC3)C(=O)N2[C@H]1C(=O)O: R
- CC1(C)SC2C(NC(=O)C(N)c3ccccc3)C(=O)N2C1C(=O)O (centres unmarked): R
- COc1cc(Cc2cnc(N)nc2N)cc(OC)c1OC: S
